# Tested on: OVCAR-5 ovarian
# test_name: NCI tumour cell line growth inhibition, 48 h
readout_kind: TGI (µM)
Quick reminder: number only, in µM, skip the unit.

Input NS(=O)(=O)c1ccc(NNc2c3ccccc3nc3ccccc23)cc1 . Output TGI: 17.5

Input CN(C)CCn1c(=O)c2ccc3c4c(nn3CCN(C)C)c3cc(N)ccc3n(c1=O)c24 . Output TGI: 0.111

Input Oc1ccc(CNCc2ccccc2)c2cccnc12 . Output TGI: 99.2

Input CCCCCCCC/C=C/CCCCCCCC1=NC(C)(C)CN1C(C)C . Output TGI: 2.88

Input COc1ccc(C(c2ccc(C(C)C)cc(=O)c2O)c2ccc3cccnc3c2O)cc1 (stereo unspecified) . Output TGI: 6.32

====

# System: MALME-3M melanoma
# test_name: NCI tumour cell line growth inhibition, 48 h
What TGI was measured for each of the following?

Input CN1C2CCC1C(C(O)c1ccccc1[N+](=O)[O-])C(=O)C2 (stereo unspecified) . Output TGI: > 100 µM

Input COc1ccc(N(CC(=O)NCCC[Te]c2ccccc2)C(=O)CCSC2=C(C)C(=O)c3ccccc3C2=O)cc1 . Output TGI: 4.51 µM

Input CCc1ccc(Nc2cc(=O)[nH]c(SCc3ccccc3)n2)cc1 . Output TGI: > 100 µM

Input NC(CNO)C(=O)O (stereo unspecified) . Output TGI: > 100 µM

Input Cn1cccc1-c1cc(-c2cccs2)[nH]c(=O)c1C#N . Output TGI: > 100 µM

Input CN(C)CCn1c(=O)c2ccc3c4c(nn3CCN(C)C)c3cc(N)ccc3n(c1=O)c24 . Output TGI: 0.257 µM

====

What TGI was measured for each of the following?
# Tested on: HT29 colon
# test_name: NCI tumour cell line growth inhibition, 48 h
Quick reminder: number only, in µM, skip the unit.

Input Cc1ccc2c(=O)cc(-c3cccc4ccccc34)[nH]c2n1 . Output TGI: 0.0658

Input N#Cc1c(-c2ccccc2)c(N=Nc2ccc(F)cc2)c(=O)n2c1[nH]c1ccccc12 . Output TGI: 12

Input O=[N+]([O-])c1cc(CCl)ccc1CCl . Output TGI: 3.22

====

# Test system: ACHN renal
# test_name: NCI tumour cell line growth inhibition, 48 h
What TGI was measured for each of the following?
Quick reminder: number only, in µM, skip the unit.

TGI for ACHN renal with input COc1ccc(/C=C2\CN(Cc3cn(CCCNc4ccnc5cc(Cl)ccc45)nn3)C/C(=C\c3ccc(OC)c(OC)c3)C2=O)cc1OC equals 3.11

TGI for ACHN renal with input N=C(N)c1ccc(-c2ccc(-c3ccc(Cl)cc3)o2)o1 equals 3.51

TGI for ACHN renal with input O=C(Nc1nccs1)c1cc2c(cc1Cl)Sc1nccn1S2(=O)=O equals 32.2

TGI for ACHN renal with input CCCCCCCC/C=C/CCCCCCCC1=NC(C)(C)CN1C(C)C equals 3.01

TGI for ACHN renal with input Cc1ccc(S(=O)(=O)/N=c2\ssc(Nc3ccccc3)c2Cl)cc1 equals 22.5

====

# Tested on: U251 CNS
# test_name: NCI tumour cell line growth inhibition, 48 h
readout_kind: TGI

TGI for U251 CNS with input CCOC(=O)CC(=O)C(=O)NNC1=NCCCN1 equals > 100 µM

TGI for U251 CNS with input COc1cc(-c2cc(=O)c3ccccc3o2)ccc1N equals > 100 µM

TGI for U251 CNS with input N=C1N(c2ccccc2)C(=O)C23CCCC2C13N1CCOCC1 (stereo unspecified) equals > 100 µM

TGI for U251 CNS with input Cc1cccc(N=Nc2c(C)nn(C(=O)CC(=O)Nc3ccccc3)c2C)c1 equals > 100 µM

TGI for U251 CNS with input CNNCc1ccc(C(=O)NC(C)C)cc1 equals > 500 µM

TGI for U251 CNS with input COC(=O)C(=O)c1c2ccccc2n2ccc3c4ccccc4[nH]c3c12 equals > 10 µM

TGI for U251 CNS with input CN1CCC[C@@H]1CCO[C@](C)(c1ccccc1)c1ccc(Cl)cc1 equals 15.8 µM

TGI for U251 CNS with input [O-][N+](CCO)(CCO)c1ncnc2nc[nH]c12 equals > 100 µM

TGI for U251 CNS with input O=S1(=O)OC(c2ccc(O)cc2)(c2ccc(O)cc2)c2ccccc21 equals > 100 µM

TGI for U251 CNS with input O=S(=O)(/N=C(\NO)Nc1ccc(Cl)cc1)c1ccc(S(=O)(=O)c2ccccc2)s1 equals 60.3 µM

TGI for U251 CNS with input CCC(C)C1NC(=O)C2CCCN2C(=O)C(CC2CO2)OC(=O)CCNC(=O)C(C)N(C)C(=O)C(C(C)C)N(C)C1=O (stereo unspecified) equals > 100 µM
